system: MDA-MB-231 cells; experiment: Cell proliferation assay (CellTiter-Glo), MDA-MB-231; assay type: cell-based; details: Homo sapiens, MDA-MB-231, 72 h, 72 h treatment, Celltiter-Glo luminescence
assay_readout: IC50 (nM)

The following compounds have reported results that may help.
compound	IC50 / nM
C[C@@H]1CN(CC(=O)N2CC(C)(C)c3c2cc(Cc2ccc(F)cc2)c2nnc(C(F)(F)F)n32)[C@@H](CN2CCOC[C@H]2C)CN1	170
C[C@@H]1CN(CC(=O)N2CC(C)(C)c3c2cc(Cc2ccc(F)cc2)c2ncc(Br)n32)[C@@H](CN2CCOC[C@H]2C)CN1	100
C[C@@H]1CN(CC(=O)N2CC(C)(C)c3c2cc(S(=O)(=O)c2ccc(F)cc2)c2ncnn32)[C@@H](CN2CCOC[C@H]2C)CN1	190

P. CC(=O)Nc1nc2c(Cc3ccc(F)cc3)cc3c(n2n1)C(C)(C)CN3C(=O)CN1C[C@@H](C)NC[C@@H]1CN1CCOC[C@H]1C
Q. C[C@@H]1CN(CC(=O)N2CC(C)(C)c3c2cc(Cc2ccc(F)cc2)c2nn(Cc4ncccn4)c(=O)n32)[C@@H](CN2CCOC[C@H]2C)CN1
From the items above, decide which of P and Q has the lower IC50 reading. Pick one; state its label.
P
(P: 100 nM, Q: 190 nM)

I. COC(=O)N(C)c1nc2c(Cc3ccc(F)cc3)cc3c(n2n1)C(C)(C)CN3C(=O)CN1C[C@@H](C)NC[C@@H]1CN1CCOC[C@H]1C
II. C[C@@H]1CN(CC(=O)N2CC(C)(C)c3c2cc(Cc2ccc(F)cc2)c2scnc32)[C@@H](CN2CCOC[C@H]2C)CN1
III. C[C@@H]1CN(CC(=O)N2CC(C)(C)c3c2cc(Cc2ccc(F)cc2)c2nc(N4CC(O)C4)nn32)[C@@H](CN2CCOC[C@H]2C)CN1
IV. COC(=O)N1CCN(CC2CN[C@H](C)CN2CC(=O)N2CC(C)(C)c3c2cc(Cc2ccc(F)cc2)c2ncnn32)[C@H](C)C1 (stereo in doubt)
Rank descending by IC50. Thanks in advance for listing the labels in the requested order.
II, IV, I, III

I. C[C@@H]1CN(CC(=O)N2CC3(CC3)c3c2cc(Cc2ccc(F)cc2)c2ncnn32)[C@@H](CN2CCOC[C@H]2C)CN1
II. C[C@@H]1CN(CC(=O)N2CC(C)(C)c3c2cc(Cc2ccc(F)cc2)c2cncn32)[C@@H](CN2CCOC[C@H]2C)CN1
III. C[C@@H]1CN(CC(=O)N2CC(C)(C)c3c2cc(Cc2ccc(F)cc2)c2nc(C(F)(F)F)cn32)[C@@H](CN2CCOCC23CC3)CN1
IV. C[C@@H]1CN(CC(=O)N2CC(C)(C)c3c2cc(Cc2ccc(F)cc2)c2nc(C4CC4)nn32)[C@@H](CN2CCOC[C@H]2C)CN1
Give the ascending ranking of the items by reported IC50. Thanks in advance for listing the labels in the requested order.
IV, I, II, III
(IV: 21 nM, I: 35 nM, II: 77 nM, III: 120 nM)

* * *

tested on: MDA-MB-231 cells; assay: Cell proliferation assay (CellTiter-Glo), MDA-MB-231; type: cell-based; details: Homo sapiens, MDA-MB-231, 72 h, 72 h treatment, Celltiter-Glo luminescence
assay_readout: IC50 (nM)

smiles_structure	IC50 / nM
C[C@@H]1CN(CC(=O)N2CC(C)(C)c3c2cc(Cc2ccc(F)cc2)c2nn(CC(C)(C)O)c(=O)n32)[C@@H](CN2CC3CC(C2)O3)CN1	270

I. C[C@@H]1CN(CC(=O)N2CC(C)(C)c3c2cc(Cc2ccc(F)cc2)c2nc(N4CCNC(=O)C4)nn32)[C@@H](CN2CCOC[C@H]2C)CN1
II. C[C@@H]1CN(CC(=O)N2CC(C)(C)c3c2cc(Cc2ccc(F)cc2)c2nc(N4CCN(C)C4=O)nn32)[C@@H](CN2CCOC[C@H]2C)CN1
III. C[C@@H]1CN(CC(=O)N2CC(C)(C)c3c2cc(Cc2ccc(F)cc2)c2nc(C(F)(F)F)cn32)[C@@H](CN2CCOC[C@H]2CF)CN1
Give the ascending ranking of the items by reported IC50. Thanks in advance for listing the labels in the requested order.
II, III, I
